# Method notes: Acute toxicity in mice, single intraperitoneal administration
# Design: species or system mice (male ddY strain)
# Stated conditions: mouse, in vivo, ip, male ddY mice
Measured endpoint: LD50
Express the reported value numerically, then name its unit.

Need LD50 of COc1cccc2c1N[C@H](OC)[C@@H]1CC(/C=C/C(=O)N(C)C)=CN1C2=O [BMY-28121B] , thanks.
0.81 mg/kg
